TGI for assorted compounds
# Test system: OVCAR-4 ovarian
# experiment_description: NCI tumour cell line growth inhibition, 48 h

Below, 8 compounds whose answers are already recorded.
CCN(Cc1ccc(F)cc1)c1cc(Cl)c(CO)c(Cl)c1 | 22.5 µM
CC1(C(=O)O)CCC2(C)CCC3(C)C(=CC(=O)C4C5(C)CCC(O)C(C)(C)C5CCC43C)C2C1 (stereo unspecified) | > 100 µM
CCn1c(-c2nonc2N)nc2c(C#CC(C)(C)O)nc(OC[C@@H](N)c3ccccc3)cc21 | 13.3 µM
O=c1ccc2ccccc2cc1[O-].O=c1ccc2ccccc2cc1[O-].[O]=[U+2]=[O] | 55.1 µM
[N-]=[N+]=NC(c1ccccc1)(c1ccccc1)c1ccccc1 | 57.9 µM
O=C1CCC2(c3ccc(Cl)cc3)Nc3ccncc3N12 (stereo unspecified) | > 10 µM
C=CC1(CC/C(=C\[N+](=O)[O-])c2ccc(OC)c(OC)c2)OCC(C)(C)CO1 | 31.5 µM
CCC(=O)NCC1CCCN2CCCCC12 (stereo unspecified) | > 100 µM

// TGI lookup, compound = "O=C(Cc1ccc(O)c(O)c1)NCc1c[nH]c2ccccc12" , result: > 100 µM

// TGI lookup, compound = "Nn1c(-c2ccccc2)n[nH]c1=O" , result: > 100 µM

// TGI lookup, compound = "CC(=O)c1c2c(c3ccccc3c1O)O[C@@H]1OCC[C@H]21" , result: > 100 µM

---

# Tested on: SF-539 CNS
# experiment_description: NCI tumour cell line growth inhibition, 48 h
quantity: TGI

O=C1CCC2(c3ccc(Cl)cc3)Nc3ccncc3N12 (stereo not given) | > 10 µM
CC1SC(c2ccc(F)cc2)N(NC(=O)C(O)c2ccccc2)C1=O (stereo not given) | > 100 µM
COc1ccc(N=NC(=Nc2ccccc2)c2ccc(N(CCC#N)CCC#N)cc2)cc1 | > 100 µM

For "C[C@]12CC[C@H](O)CC1=CC[C@@H]1[C@@H]2CC[C@]2(C)C(=N/N)/C(=N\O)C[C@@H]12" on SF-539 CNS, measured TGI was > 100 µM

For "COc1ccc(CN2C(=O)/C(=C\c3cc(OC)c(OC)c(OC)c3)c3ccccc32)cc1" on SF-539 CNS, measured TGI was 4.33 µM

---

# Tested on: NCI-H522 lung
# experiment_description: NCI tumour cell line growth inhibition, 48 h
quantity: GI50

Below, 4 molecules whose answers are already recorded.
CCCCCCCCCCn1cc[n+](C)c1 | 1.86 µM
COc1cccc(C(=O)NC(c2ccc(C)cc2)c2cc(Cl)c3cccnc3c2O)c1 (stereo not given) | 0.291 µM
Cc1cc(I)cc(CN(CCCN(C)C)C(C)C)c1O | 16 µM
O=C1c2cc3c(cc2-c2c1c1ccc(F)cc1c(=O)n2C[C@H](O)[C@@H](O)[C@H](O)CO)OCO3 | 0.0167 µM

Okay, now this molecule:
// GI50 lookup, molecule = "COc1cccc(-c2nc(-c3ccc(NC(=O)OC(C)C)cc3)[nH]c2-c2ccnc(Br)c2)c1" , result: 2.48 µM

---

# System: PC-3 prostate
# experiment_description: NCI tumour cell line growth inhibition, 48 h
quantity: TGI

N#Cc1c[nH]n2c(N=Nc3ccc(Cl)cc3)c(O)nc12 | > 100 µM
COc1ccc(-c2[nH]c3c4c(nc5c(c24)C(=O)CC(C)(C)C5)CC(C)(C)C3)cc1 | 92.6 µM
N#CC(Cc1ccccc1)N(CCC1=CCCCC1)C(c1ccccc1)c1ccccc1 (stereo not given) | > 100 µM
O=C(Nc1ccc(Oc2ccc(Nc3nc4ccccc4s3)cc2)cc1)Nc1ccc(Cl)c(C(F)(F)F)c1 | 2.79 µM
CCC(=C/[C@H](C)C/C=C/C(C)=C/[C@@H](C)C(=O)[C@@H](C)[C@H](O)[C@@H](C)CC)/C=C/[C@H]1OC(=O)C=C[C@@H]1C | 3.04 µM
CCC(=O)NCC1CCCN2CCCCC12 (stereo not given) | > 100 µM
COc1ccc(-n2c(C)nc3ccc(NC(=S)Nc4ccccc4)cc3c2=O)cc1 | > 100 µM
CC(=O)Oc1cccc2c1C(=O)CCCC2 | > 100 µM
CCCCCCCCCCCCC(O)c1ccc(C#CCCCCCCCCCO)o1 (stereo not given) | 59.6 µM

// TGI lookup, compound = "CCn1c(-c2nonc2N)nc2c(C#CC(C)(C)O)nc(OC[C@@H](N)c3ccccc3)cc21" , result: 25 µM
